B1: C1orf55 (parent)
chain: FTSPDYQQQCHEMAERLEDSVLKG

# Variants of: B1
# Test summary: protein stability index of a GFP-peptide fusion (GPS, HEK-293T) (PSI 1-6); higher = more stable;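 further: lentivirally expressed fusions sorted by FACS into six bins by GFP to DsRed ratio, PSI derived from sequencing read proportions per bin multiplied by bin number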
# Condition label: c terminus: a fixed tail appended
Quantity measured: protein stability index
Answers are plain numbers.

F1Y 1.94
Q9G 1.92
L22A 2.42
V21L 2.17
E12Y 2.35

Hi team, please reply with protein stability index for each item in this list.
1. R16E
2. E15L
3. M13H
4. Q7K
5. V21H
6. Q9T
7. R16S
8. K23D

## Output
[2.45, 1.57, 2.27, 2.07, 2.41, 1.38, 2.21, 2.57]

FYI, the data here is from the supplement of paper PMC10567573.
